tested on: cell-free soluble extract of Pseudomonas sp. CRL 75 (ATCC 21,439); experiment: Oxidation of secondary alcohols by cell-free soluble extract (NAD added); type: biochemical; conditions: soluble crude extract, grown on methanol
measurement-name: Oxidation Rate, sec-alcohol to methyl ketone (nmole/min/mg protein)
Numbers only, in nmole/min/mg protein.

Example cases with answers are listed next.
> print(dat)
                     compound  reported.value
1                      CC(C)O            21.2
2  CCC(C)O (stereo not shown)            25.0

Would you mind listing Oxidation Rate, sec-alcohol to methyl ketone for each of the following compounds?
1. CCCCC(C)O (stereo not shown)
2. CCCC(C)O (stereo not shown)

Marked response:
0
1.2
